- TESTED ON: Sodium-dependent dopamine transporter (Homo sapiens, UniProt Q01959); further: assay procedure not described here
- Sequence (Q01959 whole entry): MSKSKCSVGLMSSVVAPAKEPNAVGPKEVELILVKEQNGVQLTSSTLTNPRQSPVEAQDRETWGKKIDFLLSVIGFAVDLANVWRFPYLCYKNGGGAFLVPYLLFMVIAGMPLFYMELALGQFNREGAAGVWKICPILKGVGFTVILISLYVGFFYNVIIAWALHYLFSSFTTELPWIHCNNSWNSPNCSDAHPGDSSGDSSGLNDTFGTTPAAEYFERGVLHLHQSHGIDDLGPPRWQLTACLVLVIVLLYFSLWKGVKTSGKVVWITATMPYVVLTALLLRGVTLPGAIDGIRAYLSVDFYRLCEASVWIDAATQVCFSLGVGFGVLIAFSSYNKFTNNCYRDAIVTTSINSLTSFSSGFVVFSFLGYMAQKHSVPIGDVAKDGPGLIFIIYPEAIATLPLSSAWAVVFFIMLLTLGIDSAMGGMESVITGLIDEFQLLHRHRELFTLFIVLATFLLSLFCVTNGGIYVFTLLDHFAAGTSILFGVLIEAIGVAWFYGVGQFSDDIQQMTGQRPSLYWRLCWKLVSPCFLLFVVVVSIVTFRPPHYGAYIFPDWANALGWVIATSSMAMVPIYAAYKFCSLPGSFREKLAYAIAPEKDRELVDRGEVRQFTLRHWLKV
Record form. Attribute: AC50. Fill in for each entry.

What does the data say about its AC50? Entry: "[H]/N=C(/N)NS(=O)(=O)c1ccc(N)cc1"
> 30 µM

Also CN1CCc2c(c3ccccc3n2Cc2ccccc2)C1 [MEBHYDROLIN] ?
0.334 µM

Also "CC1=C(/C=C/C(C)=C\C=C\C(C)=C\C(=O)O)C(C)(C)CCC1" , if possible.
> 30 µM

And the next one, CN1C(C(=O)Nc2ccccn2)=C(OC(=O)/C=C/c2ccccc2)c2ccccc2S1(=O)=O [PIROXICAM CINNAMATE] ?
> 30 µM

Can you handle "Cc1ccc(C(C)C)c(O)c1" next?
> 30 µM

How about this compound: "CN(C)CCC=C1c2ccccc2CCc2ccccc21"
7.42 µM

// next record "NC(=O)C1(N2CCCCC2)CCN(CCCC(=O)c2ccc(F)cc2)CC1"
2.92 µM

Here is the next compound: "Cc1cnc(C(=O)O)c[n+]1[O-]"
> 30 µM

Same read-out for "Cc1cn(-c2cc(NC(=O)c3ccc(C)c(Nc4nccc(-c5cnccn5)n4)c3)cc(C(F)(F)F)c2)cn1" ?
> 30 µM

What would you report for "CC#CC(=O)N1CCC[C@H]1c1nc(-c2ccc(C(=O)Nc3ccccn3)cc2)c2c(N)nccn12" ?
> 30 µM

Moving on to the next compound: O=P1(N(CCCl)CCCl)NCCCO1 (stereo not drawn) [CYCLOPHOSPHAMIDE ANHYDROUS]
> 30 µM

Param item: "CC(C)=CCC/C(C)=C/CC/C(C)=C/CC/C(C)=C/CC1=C(C)C(=O)c2ccccc2C1=O"
> 30 µM

Entry to check: "O=NN(CCCl)C(=O)NCCCl"
> 30 µM

Try "CO[C@H]1/C=C/O[C@@]2(C)Oc3c(C)c(O)c4c(c3C2=O)C2=NC3(CCN(CC(C)C)CC3)NC2=C(NC(=O)/C(C)=C\C=C\[C@H](C)[C@H](O)[C@@H](C)[C@@H](O)[C@@H](C)[C@H](OC(C)=O)[C@@H]1C)C4=O" next.
> 30 µM

What would you report for CC(=O)OC1CN2CCC1CC2 (stereo not drawn) ?
> 30 µM

Can you check "CN1CCC(N(Cc2cccs2)c2ccccc2)CC1" next?
1.61 µM

What do we get for CC(C)(C)NCC(O)COc1ccccc1C#N (stereo not drawn) ?
> 30 µM

Subsequent entry: CS(=O)(=O)Nc1ccc([N+](=O)[O-])cc1Oc1ccccc1 [NIMESULIDE]
26.6 µM

* * *

As an illustration, consider measured AC50 for molecules on Vasopressin V2 receptor (Homo sapiens, UniProt P30518).
Sequence (P30518 whole entry): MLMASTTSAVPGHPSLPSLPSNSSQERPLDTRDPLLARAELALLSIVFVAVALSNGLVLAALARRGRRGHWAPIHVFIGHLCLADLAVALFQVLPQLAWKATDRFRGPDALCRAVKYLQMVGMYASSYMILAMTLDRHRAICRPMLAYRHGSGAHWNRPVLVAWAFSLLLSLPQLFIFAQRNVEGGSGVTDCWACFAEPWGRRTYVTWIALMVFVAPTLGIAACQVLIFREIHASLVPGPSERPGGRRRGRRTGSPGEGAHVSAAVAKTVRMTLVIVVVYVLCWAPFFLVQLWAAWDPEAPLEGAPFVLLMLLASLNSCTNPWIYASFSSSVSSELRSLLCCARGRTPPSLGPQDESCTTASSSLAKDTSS

Find the measured AC50: item "C[C@]12CCC(=O)C=C1C=C[C@@H]1[C@@H]2CC[C@@]2(C)[C@H]1CC[C@@]21CCC(=O)O1" , target or system Vasopressin V2 receptor (Homo sapiens, UniProt P30518). Further: assay procedure not described here.
> 30 µM

And the next one, CCC(=O)c1ccc2c(c1)N(CC(C)N(C)C)c1ccccc1S2 (stereo not drawn) ?
> 10 µM

Lookup O=C(C[S+]([O-])Cc1ccco1)NC/C=C\COc1cc(CN2CCCCC2)ccn1 (stereo not drawn)
> 10 µM

Same lookup for CC1=C(/C=C/C(C)=C/C=C/C(C)=C/C(=O)Oc2c(C)c(C)c3c(c2C)CCC(C)(CCCC(C)CCCC(C)CCCC(C)C)O3)C(C)(C)CCC1 (stereo not drawn) , please.
> 30 µM

Next entry: OCC(O)COc1ccc(Cl)cc1 (stereo not drawn)
> 10 µM

Another molecule: "CCCCOC(=O)c1ccc(N)cc1"
> 30 µM

And for "CS(=O)(=O)NC(=O)CCC/C=C\C[C@H]1C(=O)C[C@@H](O)[C@@H]1/C=C/[C@@H](O)COc1ccccc1" ?
> 30 µM

Next record, please: "CCN(CC)CCn1c(=O)c(Cc2ccc(OC)cc2)nc2ccccc21"
> 30 µM
